# assay target: IDH2-R140Q (Homo sapiens, UniProt P48735, R140Q)
# assay notes: Fluorescent determination of IDH2-R140Q cell activity (2-HG in U87MGR140Q cells)
# test context: 72 hours incubation, read-out: IC50 (2-HG inhibition)
pIC50: −log10 of the molar value.
reported property: pIC50

C[C@@H](Nc1nc(NC2CCCC2)nc(C2=C(F)C(O)CCC2)n1)C(F)(F)F (mixture of isomers) :: 6.95

I: C[C@@H](Nc1nc(NCC2CC2)nc(C2=C(F)C(O)C(F)(F)CC2)n1)C(F)(F)F (stereo partly shown) [Compound 234]
II: [2H]C1([2H])CCC(c2nc(NC3CC(F)(F)C3)nc(NC3CC(F)(F)C3)n2)=C(F)C1O (stereo not shown)
Q: Between these two entries, I and II , state which has the higher pIC50. Bench note: the answer is the label of the chosen record.
Ans: II

1: CC(C)Nc1nc(N[C@H](C)C(F)(F)F)nc(C2=CCCCC2)n1
2: C[C@@H](Nc1nc(N[C@H](C)C(F)(F)F)nc(C2=C(F)C(O)CCCC2)n1)C(F)(F)F (mixture of isomers)
3: C[C@H](Nc1nc(N[C@@H](C)C(F)(F)F)nc(C2=C(F)C(O)C(F)(F)CC2)n1)C(F)(F)F (mixture of isomers)
Q: Rank entries according to their pIC50, from the largest number down. In your reply, arrange the labels in the requested order.
Ans: 2, 3, 1
(2: 7.00, 3: 6.76, 1: 6.38)

###

# assay target: IDH1-R132H (Homo sapiens, UniProt O75874, R132H)
# Sequence (O75874 whole entry R132H): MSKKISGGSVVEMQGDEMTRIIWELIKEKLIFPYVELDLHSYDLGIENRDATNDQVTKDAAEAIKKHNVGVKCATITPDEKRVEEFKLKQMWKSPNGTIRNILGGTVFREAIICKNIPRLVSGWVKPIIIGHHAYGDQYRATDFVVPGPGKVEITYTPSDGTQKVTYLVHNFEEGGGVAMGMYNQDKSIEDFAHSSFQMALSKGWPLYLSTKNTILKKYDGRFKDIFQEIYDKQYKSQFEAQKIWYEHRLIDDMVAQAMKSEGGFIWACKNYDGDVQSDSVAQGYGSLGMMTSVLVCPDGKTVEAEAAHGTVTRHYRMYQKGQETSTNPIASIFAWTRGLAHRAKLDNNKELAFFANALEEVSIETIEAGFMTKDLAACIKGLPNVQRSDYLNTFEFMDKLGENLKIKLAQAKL
# assay notes: Fluorescent determination of IDH1-R132H cell activity (2-HG in U87MGR132H cells)
# test context: 2-HG inhibition in U87MGR132H cells transfected with IDH1-R132H mutant plasmid
pIC50: −log10 of the molar value.
reported property: pIC50

Would you please look over these solved cases?
C[C@@H](Nc1nc(NCC2CC2)nc(C2=C(F)C(O)C(F)(F)CC2)n1)C(F)(F)F (stereo partly shown) [Compound 234] :: 5.75
C[C@@H](Nc1nc(NC2CCCCC2)nc(C2=CC(O)CCC2)n1)C(F)(F)F (mixture of isomers) [Compound 136] :: 5.87
C[C@@H](Nc1nc(NCC(F)(F)F)nc(C2=C(F)C(O)C(F)(F)CC2)n1)C(F)(F)F (mixture of isomers) [Compound 245] :: 5.82
CC(C)CNc1nc(N[C@H](C)C(F)(F)F)nc(C2=C(F)C(O)CCC2)n1 (stereo partly shown) [Compound 78] :: 5.85
C[C@H](Nc1nc(N[C@@H](C)C(F)(F)F)nc(C2=C(F)C(O)CCC2)n1)C(F)(F)F (mixture of isomers) [Compound 14] :: 5.88

P: C[C@@H](Nc1nc(N[C@H](C)C(F)(F)F)nc(C2=C(F)C(=O)C(F)(F)CC2)n1)C(F)(F)F [Compound 296]
Q: OC1CCCCC(c2nc(NC3CC(F)(F)C3)nc(NC3CC(F)(F)C3)n2)=C1F (stereo not shown) [Compound 39]
Q: Response body: label of entry with the larger pIC50; valid values P , Q . Give the label under which the chosen entry appears.
Ans: P

###

# assay notes: Metabolic stability test in liver microsomes (rat)
# Format: in vitro ADME
# test context: percentage of remaining compound after incubation for 30 minutes vs 0 minute; 1 μM compound; 0.5 mg/mL liver microsomes; 37° C.
reported property: Rat liver microsome stability (%)

C[C@@H](Nc1nc(N[C@H](C)C(F)(F)F)nc(C2=CC(O)CCC2)n1)C(F)(F)F (mixture of isomers) :: 79.8
[2H]C1(O)CCCC(c2nc(NC3CC(F)(F)C3)nc(NC3CC(F)(F)C3)n2)=C1F (stereo not shown) :: 83.8
C[C@@H](Nc1nc(N[C@@H]2CCC(F)(F)C2)nc(C2=C(F)C(O)C(F)CC2)n1)C(F)(F)F (single isomer, unassigned) :: 86.6
C[C@@H](Nc1nc(N[C@H](C)C(F)(F)F)nc(C2=C(F)C(O)C(F)(F)CC2)n1)C(F)(F)F (mixture of isomers) [Compound 196] :: 100.0
OC1CCCC(c2nc(NC3CC(F)(F)C3)nc(NC3CC(F)(F)C3)n2)=C1F (stereo not shown) :: 76.8
C[C@@H](Nc1nc(N[C@H](C)C(F)(F)F)nc(C2=C(F)C(O)C(F)(F)CC2)n1)C(F)(F)F (single isomer, unassigned) [Compound 197] :: 99.5
[2H]C1([2H])CCC(c2nc(N[C@H](C)C(F)(F)F)nc(N[C@H](C)C(F)(F)F)n2)=C(F)C1O (stereo partly shown) :: 92.9
C[C@@H](Nc1nc(NC2CC(F)(F)C2)nc(C2=C(F)C(O)C(F)(F)CC2)n1)C(F)(F)F (stereo partly shown) :: 95.1
C[C@@H](Nc1nc(NC2CCC(F)(F)C2)nc(C2=C(F)C(O)CCC2)n1)C(F)(F)F (mixture of isomers) :: 70.0
[2H]C1([2H])CCC(c2nc(NC3CC(F)(F)C3)nc(NC3CC(F)(F)C3)n2)=C(F)C1([2H])O (racemic) :: 86.6

###

# assay target: IDH2-R140Q (Homo sapiens, UniProt P48735, R140Q)
# Construct: expressed in transfected cells
# Sequence (P48735 40-452 R140Q): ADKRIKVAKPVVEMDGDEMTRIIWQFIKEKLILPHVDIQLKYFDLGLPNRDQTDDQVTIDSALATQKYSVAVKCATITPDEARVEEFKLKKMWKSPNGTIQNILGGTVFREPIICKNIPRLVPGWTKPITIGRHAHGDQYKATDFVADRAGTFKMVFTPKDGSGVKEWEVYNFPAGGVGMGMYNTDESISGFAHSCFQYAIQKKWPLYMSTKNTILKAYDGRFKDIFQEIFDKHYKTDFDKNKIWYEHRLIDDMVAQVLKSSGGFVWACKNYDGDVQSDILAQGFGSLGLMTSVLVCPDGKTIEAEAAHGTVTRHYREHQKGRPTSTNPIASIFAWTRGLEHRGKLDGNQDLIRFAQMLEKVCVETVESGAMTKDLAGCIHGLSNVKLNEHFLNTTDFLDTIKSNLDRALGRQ
# assay notes: Fluorescent determination of IDH2-R140Q cell activity (2-HG in U87MGR140Q cells)
# Format: cell-based
# test context: 72 hours incubation, read-out: IC50 (2-HG inhibition)
reported property: IC50 (µM)

Examples with their reported IC50 follow.
C[C@@H](Nc1nc(NC2CC(F)(F)C2)nc(C2=C(F)C(O)C(F)(F)CC2)n1)C(F)(F)F (stereo partly shown) :: 0.057
OC1CCCC(c2nc(NC3CC(F)(F)C3)nc(NC3CC(F)(F)C3)n2)=C1F (stereo not shown) :: 0.093
CC(C)Nc1nc(N[C@H](C)C(F)(F)F)nc(C2=CCCC2)n1 :: 1.41
C[C@H](Nc1nc(N[C@@H](C)C(F)(F)F)nc(C2=C(F)C(O)CCC2)n1)C(F)(F)F (mixture of isomers) [Compound 14] :: 0.23

a: C[C@@H](Nc1nc(NC2CC3(CCC3)C2)nc(C2=C(F)C(O)CCC2)n1)C(F)(F)F (mixture of isomers)
b: OC1C(F)=C(c2nc(Nc3ccnc(C(F)(F)F)c3)nc(NC(C3CC3)C3CC3)n2)CCC1(F)F (stereo not shown)
Q: For the pair a and b , which member has the lower IC50 number? Answer by quoting the chosen item's label.
Ans: b
(b: 0.059 µM, a: 0.205 µM)

###

# assay notes: Metabolic stability test in liver microsomes (mouse)
# Assay type: in vitro ADME
# test context: percentage of remaining compound after incubation for 30 minutes vs 0 minute; 1 μM compound; 0.5 mg/mL liver microsomes; 37° C.
reported property: Mouse liver microsome stability (%)

a: CC(C)Nc1nc(N[C@H](C)C(F)(F)F)nc(C2=C(F)C(O)C(F)(F)CC2)n1 (stereo partly drawn)
b: OC1C(F)=C(c2nc(NC3CC(F)(F)C3)nc(NC3CC(F)(F)C3)n2)CCC1F (single isomer, unassigned) [Compound 202]
c: C[C@@H](Nc1nc(NC2CCC2)nc(C2=CC(O)CCC2)n1)C(F)(F)F (mixture of isomers)
d: CC(C)Nc1nc(N[C@H](C)C(F)(F)F)nc(C2=CC(O)CCC2)n1 (mixture of isomers)
Q: I'd appreciate it if you could rank the compounds mentioned above by Mouse liver microsome stability, largest value first. Form field (ranking): labels in requested order.
Ans: b, a, d, c

1: [2H]C1([2H])CCC(c2nc(N[C@@H](C)C(F)(F)F)nc(N[C@@H](C)C(F)(F)F)n2)=C(F)C1O (stereo partly drawn)
2: C[C@@H](Nc1nc(NC2CCC2)nc(C2=C(F)C(O)CCC2)n1)C(F)(F)F (mixture of isomers)
Q: Form field 'greater Mouse liver microsome stability' accepts 1 or 2 ; which applies? Bench note: the answer is the label of the chosen record.
Ans: 1
(1: 88.5%, 2: 49.8%)

1: C[C@@H](Nc1nc(NC2CCC(F)(F)C2)nc(C2=C(F)C(O)CCC2)n1)C(F)(F)F (mixture of isomers)
2: C[C@@H](Nc1nc(NC2CCC(F)(F)C2)nc(C2=CC(O)CCC2)n1)C(F)(F)F (mixture of isomers)
Q: Between 1 and 2 , which one shows the larger Mouse liver microsome stability value? Mark your answer with the label of the selected entry.
Ans: 1

a: OC1CCCC(c2nc(NC3CC(F)(F)C3)nc(NC3CC(F)(F)C3)n2)=C1F (stereo not drawn)
b: [2H]C1(O)C(F)=C(c2nc(N[C@H](C)C(F)(F)F)nc(N[C@H](C)C(F)(F)F)n2)CCC1F (stereo partly drawn)
Q: Kindly identify the item with the lower Mouse liver microsome stability figure among these two: a and b Give the label of your selection.
Ans: a
(a: 58.6%, b: 91.5%)

A: C[C@@H](Nc1nc(N[C@H](C)C(F)(F)F)nc(C2=CC(O)CCC2)n1)C(F)(F)F (mixture of isomers)
B: C[C@@H](Nc1nc(N[C@H](C)C(F)(F)F)nc(C2=C(F)C(O)C(F)CC2)n1)C(F)(F)F (single isomer, unassigned) [Compound 98]
Q: Please let me know which one, A or B , has a lower measured Mouse liver microsome stability value. Record your answer as the label of the chosen record.
Ans: A
